- Tested on: lipase
- TEST PROTOCOL: Lipase/lipolysis assay (EnzChek Lipase Substrate, quenched BODIPY-fatty acid conjugate) on stored human milk; note: test concentration or dose not given here
Answer each item with its documented Lipase (RFU).
Answers are plain numbers, in RFU.

As a guide, the following entries are already answered.
{"COMPOUND": "C[C@]12CCC(=O)C=C1CC[C@@H]1[C@@H]2[C@@H](O)C[C@]2(C)C(=O)CC[C@@H]12 [11-Beta-hydroxyandrostenedione]", "TEST SYSTEM": "lipase", "UNIT": "RFU", "Lipase (RFU)": 1190.299}
{"COMPOUND": "CC(C)=CCC/C(C)=C/CC/C(C)=C/CC[C@]1(C)CCc2c(C)c(O)cc(C)c2O1", "TEST SYSTEM": "lipase", "UNIT": "RFU", "Lipase (RFU)": 668.6336}
{"COMPOUND": "NC(=O)NCCC(=O)O", "TEST SYSTEM": "lipase", "UNIT": "RFU", "Lipase (RFU)": 1035.138}
{"COMPOUND": "C[C@H](CCC(=O)O)[C@H]1CC[C@H]2[C@@H]3[C@@H](O)C[C@@H]4C[C@H](O)CC[C@]4(C)[C@H]3C[C@H](O)[C@]12C", "TEST SYSTEM": "lipase", "UNIT": "RFU", "Lipase (RFU)": 879.9608}
{"COMPOUND": "CC1(C)CCCC2(C)OC(=O)C=C12 (single isomer, unassigned; (+)) [(+)-Dihydroactinidiolide]", "TEST SYSTEM": "lipase", "UNIT": "RFU", "Lipase (RFU)": 951.3124}

Switching to the query record.
### Prompt Give me measured Lipase (RFU), please, for this compound: O=c1c(O[C@@H]2O[C@H](CO)[C@@H](O)[C@H](O)[C@H]2O[C@@H]2O[C@H](CO)[C@@H](O)[C@H](O)[C@H]2O)c(-c2ccc(O)cc2)oc2cc(O)cc(O)c12 [Kaempferol 3-O-sophoroside]
### Response 867.3846
